- Species on record: Rattus norvegicus
- ASSAY_METHOD_TEXT: Molar concentration required to relax rat aorta precontracted with 30 mM KCL by 50% of intrinsic activity
- Assay type: functional
RECORDED_ENDPOINT: EC50 (nM)

COMPOUND: CNC(=S)C1=CC(C)(C)Oc2ccc(C(=O)OC)cc21
QUANTITATIVE_RESULT: 95.5
